B1: tRNA (parent)
chain: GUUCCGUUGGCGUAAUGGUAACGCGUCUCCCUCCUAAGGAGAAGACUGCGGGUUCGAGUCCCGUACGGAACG

variants of: B1; test: yeast fitness relative to wild type (ratio to wild type); higher = fitter; tRNA-Arg(CCU), competitive growth, 37 C, YPD
Variants at the floor of the assay were thinned out.
Listed here: items and their measured yeast fitness.
PROPERTY: yeast fitness

>>> numeric_readout("A45G A70U")
0.913
>>> numeric_readout("G50C C55G C60A")
0.63
>>> numeric_readout("G25A C31U G41U")
0.739
>>> numeric_readout("C4G G6C G25A C29A C31A C33G")
0.59
>>> numeric_readout("C11G C29A C31G C46A C60G")
0.614
>>> numeric_readout("G6A G10C C30A U32C A69U")
0.586
>>> numeric_readout("G25C A69U")
0.929
>>> numeric_readout("G51C C61U")
0.604
>>> numeric_readout("C24G U26C")
0.688
>>> numeric_readout("A37C G50C")
0.551
>>> numeric_readout("A14G U19C G67A")
0.76
>>> numeric_readout("C24U U28C")
0.988
